- Assay Explanation: NF-kB reporter blockers in CF airway cells – cell-based, GFP fluorescence, uHTS, primary screen (AID 588850);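 note: PAF is a Pseudomonas aeruginosa culture filtrate used as stimulus; plate controls were PAF-stimulated DMSO wells for no effect and unstimulated DMSO wells for full effect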
- Condition Parameters: KKLEB NF-kB-GFP reporter, PAF-induced, GFP fluorescence overnight; at 5 µM
Hit rate of the full screen: of about 360,000 compounds, about 3,100 (0.86%) were called active.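 Rule for the calls: active = at least 50% inhibition at 5 µM, scaled per plate between neutral and stimulator controls; inactive = the rest.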 The sample holds actives, similar compounds and a random draw of the others, so the mix is not that of the screen.
Outcome codes: active, inactive

>  <Compound>
CCN1CCC2(CCN(Cc3cn[nH]c3-c3ccc(OC)c(F)c3)C2)C1 (stereo unspecified)

>  <Discrete Label>
inactive

$$$$
>  <Compound>
Cc1ccc(C(=O)CCC(=O)N(C)CC(=O)Nc2c(Cl)cccc2Cl)cc1

>  <Discrete Label>
inactive

$$$$
>  <Compound>
COc1ccc(CNC(=O)/C(C#N)=C/c2cccc(OC)c2OC)cc1

>  <Discrete Label>
active

$$$$
>  <Compound>
CCOC(=O)C(C(=O)c1ccccc1)C(c1ccccc1)c1nccc2ccccc12 (stereo unspecified)

>  <Discrete Label>
active

$$$$
>  <Compound>
CCOC(=O)CSc1ccccn1

>  <Discrete Label>
inactive

$$$$
>  <Compound>
CCOc1ccc(NC(=O)CSc2ncnc3c2sc2ccccc23)cc1

>  <Discrete Label>
inactive

$$$$

---

- Assay Explanation: NF-kB reporter blockers in CF airway cells – cell-based, GFP fluorescence, uHTS, primary screen (AID 588850);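 note: PAF is a Pseudomonas aeruginosa culture filtrate used as stimulus; plate controls were PAF-stimulated DMSO wells for no effect and unstimulated DMSO wells for full effect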
- Condition Parameters: KKLEB NF-kB-GFP reporter, PAF-induced, GFP fluorescence overnight; at 5 µM; hits give high values
In all, about 360,000 compounds went through this assay and about 3,100 (0.86%) were called active. Only a selection was taken, and actives are over-represented in it overall.

>  <Molecule>
Oc1c(Cl)cc(Cl)c(Cl)c1Cc1c(O)c(Cl)cc(Cl)c1Cl

>  <inhibition, %>
65.4

$$$$
>  <Molecule>
FC(F)Oc1ccc(NC(=S)NCc2ccco2)cc1Cl

>  <inhibition, %>
-1.9

$$$$
>  <Molecule>
CC(C)=CCN1CCN(CCCc2ccccc2)CC1CCO (stereo unspecified)

>  <inhibition, %>
1.3

$$$$
>  <Molecule>
CC(=O)Oc1c(C(=O)c2nnc(C)o2)c(=O)n(Cc2ccccc2)c2ccccc12

>  <inhibition, %>
50.9

$$$$
>  <Molecule>
Cc1ccc(NC(=O)Nc2nnc(-c3ccncc3)s2)cc1

>  <inhibition, %>
68

$$$$
>  <Molecule>
CCCCOc1ccc(C(=O)NCC(=O)OCC(=O)c2c(N)n(C)c(=O)n(C)c2=O)cc1

>  <inhibition, %>
14.9

$$$$
>  <Molecule>
CCN(CC)S(=O)(=O)c1ccc2[nH]c(=O)cc(C(=O)N(C)C3CCS(=O)(=O)C3)c2c1 (stereo unspecified)

>  <inhibition, %>
-1.3

$$$$
>  <Molecule>
CCc1ccc(NC(=O)Nc2ccncc2)cc1

>  <inhibition, %>
16.4

$$$$
>  <Molecule>
NC(=O)c1sc2nc3c(c(-c4ccccc4)c2c1N)CCC3

>  <inhibition, %>
78.3

$$$$
>  <Molecule>
Cc1nnc(NC(=O)Nc2ccc(Cl)c(Cl)c2)s1

>  <inhibition, %>
83.2

$$$$
>  <Molecule>
S=c1[nH]c2ccccc2c2ccccc12

>  <inhibition, %>
-8.9

$$$$

---

- Assay Explanation: NF-kB reporter blockers in CF airway cells – cell-based, GFP fluorescence, uHTS, primary screen (AID 588850);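 note: PAF is a Pseudomonas aeruginosa culture filtrate used as stimulus; plate controls were PAF-stimulated DMSO wells for no effect and unstimulated DMSO wells for full effect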
- Condition Parameters: KKLEB NF-kB-GFP reporter, PAF-induced, GFP fluorescence overnight; at 5 µM; hits give high values
The campaign covered roughly 360,000 compounds. About 3,100 (0.86%) were called active. For the sample, actives were picked, then their nearest neighbours and some compounds at random.

>  <Compound>
COc1ccc(C(CCN(Cc2ccc(OC)c(OC)c2)C(=O)CCl)c2ccccc2)cc1 (stereo unspecified)

>  <inhibition / %>
82.6

$$$$
>  <Compound>
COc1ccc(C(C(=O)NC2CCCCC2)N(C(=O)CCl)c2ccccc2Cl)cc1 (stereo unspecified)

>  <inhibition / %>
-13.3

$$$$
>  <Compound>
O=C(CSc1ncnc2scc(-c3ccccc3)c12)NCc1ccc2c(c1)OCO2

>  <inhibition / %>
13.3

$$$$
>  <Compound>
CC(=O)N(CN1C(=O)C2CC=CCC2C1=O)c1cccc(Cl)c1 (stereo unspecified)

>  <inhibition / %>
-5.3

$$$$
>  <Compound>
c1nnc2c3c4c(sc3ncn12)CCC4

>  <inhibition / %>
59

$$$$
>  <Compound>
O=C(COC(=O)c1ccc(Cl)nc1)NCc1ccc2c(c1)OCO2

>  <inhibition / %>
-9.2

$$$$
>  <Compound>
O=S1(=O)CC(N2CCC(Cc3ccccc3)CC2)CN1Cc1ccccc1 (stereo unspecified)

>  <inhibition / %>
-8.1

$$$$
>  <Compound>
CC(=O)c1cccc(-c2cnc3c(NC=O)cc(-c4ccc(N(C)C)cc4)cn23)c1

>  <inhibition / %>
29.8

$$$$
>  <Compound>
Nc1c(-c2ccc(F)cc2)cnn1C1CCS(=O)(=O)C1 (stereo unspecified)

>  <inhibition / %>
-5.8

$$$$
>  <Compound>
CN(C)C(=O)c1cccc(-c2cnc3sc(NCc4ccc5c(c4)OCO5)nn23)c1

>  <inhibition / %>
82.2

$$$$
>  <Compound>
Cc1ccc(S(=O)(=O)Nc2ccc(F)c(S(=O)(=O)N3CCOCC3)c2)cc1

>  <inhibition / %>
-4.8

$$$$

meta.source: PubChem BioAssay AID588850
